Test: Toxicity against Oreochromis mossambicus assessed as mortality at 50 ug/ml
Assay type: organism-based
Experimental Parameters: in vivo, read-out: Activity
Result Type: mortality at 50 ug/ml (%)

1. [H][C@@]12OC(=O)c3cc(O)c(O)c(O)c3-c3c(O)c(O)c4oc(=O)c5cc(O)c(c6oc(=O)c3c4c65)Oc3c(cc(O)c(O)c3O)C(=O)OC[C@@]1([H])OC(O)[C@]1([H])OC(=O)c3cc(O)c(O)c(O)c3-c3c(cc(O)c(O)c3O)C(=O)O[C@@]21[H] (stereo partly specified) [ISOTERCHEBULIN] :: 10

Origin of measurements: ChEMBL document CHEMBL1150564
